Data provenance: patent US20240376076A1

- target: USP7, Active human recombinant protein (Homo sapiens)
- Construct: purchased CP Lot; 20200225001
- Sequence (Q93009 whole entry): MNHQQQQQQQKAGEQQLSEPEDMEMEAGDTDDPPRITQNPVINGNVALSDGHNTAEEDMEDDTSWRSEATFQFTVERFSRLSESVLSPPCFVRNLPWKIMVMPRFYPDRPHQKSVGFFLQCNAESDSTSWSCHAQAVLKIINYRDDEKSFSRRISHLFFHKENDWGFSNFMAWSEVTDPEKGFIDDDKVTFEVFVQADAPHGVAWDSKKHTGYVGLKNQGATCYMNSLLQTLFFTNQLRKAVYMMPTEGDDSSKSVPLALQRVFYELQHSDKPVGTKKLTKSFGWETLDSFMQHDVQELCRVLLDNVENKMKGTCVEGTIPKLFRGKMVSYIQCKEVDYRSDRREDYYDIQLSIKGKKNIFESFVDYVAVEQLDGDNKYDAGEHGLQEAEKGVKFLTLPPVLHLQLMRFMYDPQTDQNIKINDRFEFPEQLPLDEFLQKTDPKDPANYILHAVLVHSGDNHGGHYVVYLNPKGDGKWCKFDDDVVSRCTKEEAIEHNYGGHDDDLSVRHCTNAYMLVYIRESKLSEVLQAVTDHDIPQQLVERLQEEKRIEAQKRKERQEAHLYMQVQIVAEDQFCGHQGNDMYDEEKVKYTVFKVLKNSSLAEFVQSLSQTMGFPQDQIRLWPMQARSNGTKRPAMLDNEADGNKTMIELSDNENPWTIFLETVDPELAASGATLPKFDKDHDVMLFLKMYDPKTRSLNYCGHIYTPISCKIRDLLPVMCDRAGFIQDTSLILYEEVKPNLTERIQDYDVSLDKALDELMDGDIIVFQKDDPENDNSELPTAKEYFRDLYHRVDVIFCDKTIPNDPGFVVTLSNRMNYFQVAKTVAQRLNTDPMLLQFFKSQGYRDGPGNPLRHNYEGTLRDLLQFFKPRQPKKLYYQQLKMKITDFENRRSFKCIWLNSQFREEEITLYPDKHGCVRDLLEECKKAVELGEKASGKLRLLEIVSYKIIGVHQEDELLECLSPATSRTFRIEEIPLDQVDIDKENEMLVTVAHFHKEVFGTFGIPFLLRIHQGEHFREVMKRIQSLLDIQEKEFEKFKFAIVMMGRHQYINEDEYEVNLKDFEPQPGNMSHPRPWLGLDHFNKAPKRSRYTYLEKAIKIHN
- test.name: USP7 assay (Ubiquitin-Rhodamine 110 enzymatic assay)
- Type: biochemical
- condition: read-out: IC50
IC50 values by entry

CN(C)CCCOc1ccc2c(=O)n(CC3(O)CCN(C(=O)C(CCCNC(=O)c4ccc5c(Cl)c6c(nc5c4)CCCC6)Cn4ccc(F)n4)CC3)cnc2c1 (stereo not drawn) = < 20 nM
O=C(NCCC[C@@H](Cc1ccccc1)C(=O)N1CCC(O)(Cn2cnc(NCCN3CCCC3)cc2=O)CC1)c1ccc2c(Cl)ccnc2c1 [Compound 13] = 20 to 100 nM
C=CS(=O)(=O)NCc1cccc(C(=O)N2CCC(O)(Cn3cnc4cc(NC(=O)CCN5CCN(C)CC5)ccc4c3=O)CC2)c1 [Compound 26] = > 1000 nM
CN(C)CCC(=O)Nc1ccc2c(=O)n(CC3(O)CCN(C(=O)c4cnn(CCNC(=O)c5ccc6c(Cl)ccnc6c5)c4Cc4ccccc4)CC3)cnc2c1 [Compound 53] = 100 to 1000 nM
O=C(NCCC[C@H](Cc1ccccc1)C(=O)N1CCC(O)(Cn2cnc(NCCN3CCCC3)cc2=O)CC1)c1ccc2c(Cl)ccnc2c1 [Compound 12] = > 1000 nM

# input for lookup
GET /value?item= CN(C)CCC(=O)Nc1ccc2c(=O)n(CC3(O)CCN(C(=O)C(CCCC(=O)Nc4ccc5c(Cl)ccnc5c4)Cc4ccccc4)CC3)cnc2c1 (stereo not drawn) [Compound 78] &field=IC50 returns < 20 nM
